Where these numbers come from: ChEMBL document CHEMBL4251654

Examples of molecules with documented inhibition follow.
- TARGET ENTITY: Proteasome subunit beta type-10 (Homo sapiens) (UniProt P40306)
- Sequence (P40306 whole entry): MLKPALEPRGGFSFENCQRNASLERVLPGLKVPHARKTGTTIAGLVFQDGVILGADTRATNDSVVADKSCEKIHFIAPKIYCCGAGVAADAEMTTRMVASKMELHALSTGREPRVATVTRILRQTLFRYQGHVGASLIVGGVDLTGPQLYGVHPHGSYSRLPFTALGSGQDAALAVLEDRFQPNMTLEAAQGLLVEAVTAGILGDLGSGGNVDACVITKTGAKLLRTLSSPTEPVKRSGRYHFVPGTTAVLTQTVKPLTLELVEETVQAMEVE
- MEASUREMENT PROTOCOL: Inhibition of human 20S immunoproteasome beta-2 at 50 uM using BocLRR-AMC as substrate incubated for 15 mins measured for 45 mins by fluorescence assay relative to control

# STRUCTURE NOTATION, inhibition
measured = [
    ("C[C@H](NC(=O)[C@H](Cc1ccc(OCc2ccccc2)cc1)NC(=O)OC(C)(C)C)C(=O)N[C@@H](C[C@]1(O)C(=O)Nc2ccccc21)C(=O)NCCC1CCCCC1", "19%"),
    ("C[C@@H](O)[C@@H](NC(=O)c1ccc(OCc2ccccc2)cc1)C(=O)N[C@@H](C[C@]1(O)C(=O)Nc2ccccc21)C(=O)NCc1ccccc1", "> 85%"),
    ("C[C@H](NC(=O)[C@H](Cc1ccc(OCc2ccccc2)cc1)NC(=O)OC(C)(C)C)C(=O)N[C@@H](C[C@]1(O)C(=O)Nc2ccccc21)C(=O)NCc1cccc2ccccc12", "> 85%"),
    ("C[C@H](NC(=O)[C@H](Cc1ccc(OCc2ccccc2)cc1)NC(=O)OC(C)(C)C)C(=O)N[C@@H](C[C@@]1(O)C(=O)Nc2ccccc21)C(=O)NCc1ccccc1", "> 85%"),
]

###

inhibition: recorded values
- TARGET ENTITY: Proteasome component C5 (Homo sapiens)
- MEASUREMENT PROTOCOL: Inhibition of human 20S constitutive proteasome beta-1 at 50 uM using Z-LLE-betaNA as substrate incubated for 15 mins measured for 45 mins by fluorescence assay relative to control

# STRUCTURE NOTATION, inhibition
measured = [
    ("NCCCC[C@H](NC(=O)[C@@H](N)Cc1ccc(OCc2ccccc2)cc1)C(=O)N[C@@H](C[C@]1(O)C(=O)Nc2ccccc21)C(=O)NCc1ccccc1", "> 85%"),
    ("C[C@H](NC(=O)[C@H](Cc1ccc(OCc2ccccc2)cc1)NC(=O)OC(C)(C)C)C(=O)N[C@@H](C[C@]1(O)C(=O)Nc2ccccc21)C(=O)NCC(C)(C)C", "> 85%"),
    ("C[C@H](NC(=O)[C@H](Cc1ccc(OCc2ccccc2)cc1)NC(=O)OC(C)(C)C)C(=O)N[C@@H](C[C@@]1(O)C(=O)Nc2ccccc21)C(=O)NCc1ccccc1", "> 85%"),
    ("CC(C)(C)OC(=O)NCCCC[C@H](NC(=O)[C@H](Cc1ccc(OCc2ccccc2)cc1)NC(=O)OC(C)(C)C)C(=O)N[C@@H](C[C@]1(O)C(=O)Nc2ccccc21)C(=O)NCc1ccccc1", "15%"),
    ("CC(C)(C)OC(=O)N[C@@H](Cc1ccc(OCc2ccccc2)cc1)C(=O)NCC(=O)N[C@@H](C[C@]1(O)C(=O)Nc2ccccc21)C(=O)NCc1ccccc1", "> 85%"),
    ("CC(C)c1ccc(CNC(=O)[C@H](C[C@]2(O)C(=O)Nc3ccccc32)NC(=O)[C@H](C)NC(=O)[C@H](Cc2ccc(OCc3ccccc3)cc2)NC(=O)OC(C)(C)C)cc1", "37%"),
]
